B1: library; a variant is named by its letters at N, in order (parent)
chain: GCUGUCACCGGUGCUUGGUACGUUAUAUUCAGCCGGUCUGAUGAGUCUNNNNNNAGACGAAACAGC

Variants of: B1
Experiment: normalized RNA/DNA level with ligand (relative to sTRSVctl = 100) (log10 (% of sTRSVctl)); HEK293T overexpressing SLC46A1; ligand concentration (+) RNA-Seq: 6 mM; higher = less ribozyme self-cleavage, higher mRNA level
Settings: with (6R,S)-folinic acid; ligand present: yes
measuredProperty: normalized RNA/DNA level with ligand (log10)

In [3]: df
Out[3]:
   variantkey  recordedresult
0      AUACUG            2.01
1      UUAAUA            2.02
2      AAAUGA            2.04
3      CCGAUU            2.05
4      AACCUU            2.04
5      AUAUCC            2.03
